# study.system: glucagon receptor (Homo sapiens)
# Construct: expressed in transfected cells; host or cells: Chinese Hamster Ovary cells (CHO-HGR), membranes
# assay.text: glucagon receptor binding assay (125I-glucagon, CHO-HGR membranes)
# settings: 125I-glucagon; 60 min at room temperature; read-out: IC50
Form field: IC50 (one value per entry).
quantity.name: IC50

* CC(C)c1nc(C(C)C)c(CSCc2ccccc2)c(-c2ccc(F)cc2)c1CO | 1100 nM
* CCCCCCCc1c(C(C)C)nc(C(C)C)c(CO)c1-c1ccc(F)cc1 | 700 nM
* Cc1ccc(CCCc2c(C(C)C)nc(C(C)C)c(CO)c2-c2ccc(F)cc2)cc1 | 1100 nM
* CCCCCc1c(CCC(C)C)nc(C(C)C)c(CO)c1-c1ccc(F)cc1 | 800 nM
* CC(C)c1nc(C(C)C)c(CSCCc2ccccc2)c(-c2ccc(F)cc2)c1CO | 750 nM
* CC(C)c1nc(C(C)C)c(CCc2ccccc2)c(-c2ccc(F)cc2)c1CO | 750 nM
* CCc1c(C(C)C)nc(C(C)C)c(CO)c1-c1ccc(F)cc1 | 1000 nM
* Cc1cccc(CCCc2c(C(C)C)nc(C(C)C)c(CO)c2-c2ccc(F)cc2)c1 | 1500 nM
* Cc1ccc(/C=C/c2c(C(C)C)nc(C(C)C)c(CO)c2-c2ccc(F)cc2)cc1 | 700 nM

====

# inhibition at 20 µM annotations
# study.system: glucagon receptor (Homo sapiens, UniProt P47871)
# Construct: expressed in transfected cells; host or cells: Chinese Hamster Ovary cells (CHO-HGR), membranes
# Sequence (P47871 26-477): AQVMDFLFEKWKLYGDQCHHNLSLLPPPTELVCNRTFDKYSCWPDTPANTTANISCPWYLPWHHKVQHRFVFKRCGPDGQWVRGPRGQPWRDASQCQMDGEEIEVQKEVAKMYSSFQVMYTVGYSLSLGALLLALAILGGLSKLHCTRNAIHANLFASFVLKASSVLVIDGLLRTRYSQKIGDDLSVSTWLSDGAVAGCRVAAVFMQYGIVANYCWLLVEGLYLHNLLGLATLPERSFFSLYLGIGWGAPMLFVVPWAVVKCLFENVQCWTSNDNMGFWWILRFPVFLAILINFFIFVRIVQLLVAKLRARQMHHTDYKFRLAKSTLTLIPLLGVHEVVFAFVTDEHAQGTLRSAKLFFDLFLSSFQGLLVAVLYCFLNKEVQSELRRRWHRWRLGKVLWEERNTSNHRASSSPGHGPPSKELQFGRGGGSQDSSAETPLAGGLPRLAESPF
# assay.text: glucagon receptor binding assay (125I-glucagon, CHO-HGR membranes)
# settings: 20 μM; reported where 20 μM did not reduce glucagon binding by 50%
quantity.name: inhibition at 20 µM (%)

* CCCC=Cc1c(C(C)C)nc(C(C)C)c(CO)c1-c1cccc(OCc2ccccc2)c1 | 25.4
* CC(C)c1nc(C(C)C)c(CN2CCOCC2)c(-c2ccc(F)cc2)c1CO | 40.2
* CCCCC(OC)c1c(C(C)C)nc(C(C)C)c(CO)c1-c1ccc(F)cc1 (racemic) | 39.6
* CCCC=Cc1c(C(C)C)nc(C(C)C)c(CO)c1-c1ccc(Cl)c(Cl)c1 | 39
* CCCCCc1c(C(C)C)nc(C(C)C)c(CO)c1-c1ccccc1C | 33.1
* CC(C)c1nc(C(C)C)c(C(O)C(C)C)c(-c2ccc(F)cc2)c1CO (racemic) | 29.2
* CC(C)c1nc(C(C)C)c(CCCCCCCN(C)C)c(-c2ccc(F)cc2)c1CO | 29.1

====

# study.system: glucagon receptor (Homo sapiens)
# Construct: expressed in transfected cells; host or cells: Chinese Hamster Ovary cells (CHO-HGR), membranes
# assay.text: glucagon receptor binding assay (125I-glucagon, CHO-HGR membranes)
# settings: 20 μM; reported where 20 μM did not reduce glucagon binding by 50%
quantity.name: inhibition at 20 µM (%)

* CCc1nc(CC)c(CO)c(-c2ccccc2)c1CC | 16.6
* CC(C)c1nc(C(C)C)c(C(O)c2ccccc2)c(-c2ccc(F)cc2)c1CO (racemic) | 27.8
* CCCCCc1c(C(C)C)nc(C(C)C)c(CO)c1-c1ccc(C(F)(F)F)cc1 | 35.3
* CCCC=Cc1c(C(C)C)nc(C(C)C)c(CO)c1-c1ccc(OCc2ccccc2)cc1 | 21
* CCCC=Cc1c(C(C)C)nc(C(C)C)c(CO)c1-c1ccc(-c2ccccc2)cc1 | 4.64
* C#Cc1ccccc1-c1c(C=CCCC)c(C(C)C)nc(C(C)C)c1CO | 26.1
* CCCCCc1c(C(C)C)nc(C(C)C)c(CO)c1-c1ccc(F)c(C(O)c2ccc(F)cc2)c1 (stereo not shown) | 46
* CCCC=Cc1c(C(C)C)nc(C(C)C)c(CO)c1-c1ccc(C(C)C)cc1 | 35.5
* CCCCCc1c(C(C)C)nc(C(C)C)c(CO)c1-c1cccc(C)c1 | 46.3
* CCC(OC)c1c(C(C)C)nc(C(C)C)c(CO)c1-c1ccc(F)cc1 (racemic) | 43.2
* C=CCc1c(C)cc(C)c(C(C)O)c1-c1ccc(F)cc1 (stereo not shown) | 40.3
* CCCCCc1c(CO)nc(C(C)C)c(CO)c1-c1ccc(F)cc1 | 32.8
* CCCCN(CCCC)Cc1c(C(C)C)nc(C(C)C)c(CO)c1-c1ccc(F)cc1 | 38.8
* CCCCCc1c(COC)nc(C(C)C)c(CO)c1-c1ccc(F)cc1 | 46.7
* COC(=O)c1c(C(C)C)nc(C(C)C)c(CN2CCC(N3CCCCC3)CC2)c1-c1ccc(F)cc1 | 17.5
* CCCC=Cc1c(C(C)C)nc(C(C)C)c(CO)c1-c1cccc(F)c1 | 45.5
* CCCCCc1c(C(C)C)nc(C(C)C)c(CO)c1-c1ccc(Cl)cc1Cl | 7.78
* C=CC(O)c1c(C(C)C)nc(C(C)C)c(CCCCC)c1-c1ccc(F)cc1 (racemic) | 38.5
* CCCC=Cc1c(C(C)C)nc(C(C)C)c(CO)c1-c1ccc([S+](C)[O-])cc1 (stereo not shown) | 40.9
